Target: Bovine liver glutamate dehydrogenase (Bos taurus, UniProt P00366)
Sequence (P00366 58-558): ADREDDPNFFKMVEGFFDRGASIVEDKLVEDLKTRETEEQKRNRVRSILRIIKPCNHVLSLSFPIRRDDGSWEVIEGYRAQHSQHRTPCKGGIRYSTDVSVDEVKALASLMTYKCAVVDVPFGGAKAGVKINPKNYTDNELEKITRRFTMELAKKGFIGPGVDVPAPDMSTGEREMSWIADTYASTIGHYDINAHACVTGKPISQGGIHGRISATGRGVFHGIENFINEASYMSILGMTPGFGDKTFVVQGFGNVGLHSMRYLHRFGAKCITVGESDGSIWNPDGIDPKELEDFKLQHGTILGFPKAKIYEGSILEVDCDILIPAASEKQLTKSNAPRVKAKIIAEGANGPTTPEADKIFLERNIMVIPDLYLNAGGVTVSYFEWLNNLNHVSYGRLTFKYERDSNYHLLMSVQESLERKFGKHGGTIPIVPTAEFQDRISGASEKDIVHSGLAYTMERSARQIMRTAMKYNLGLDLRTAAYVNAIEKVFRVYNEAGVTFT
Assay: Fluorescence titrations of reduced cofactor binding
Conditions: NADPH, +20mM glutamate, pH 8.0
parameter measured: pKd
One number for each entry, as −log10 of the molar value.

Request: Data request, read-out pKd, for `NC(=O)C1=CN([C@@H]2O[C@H](COP(=O)(O)OP(=O)(O)OC[C@H]3O[C@@H](n4cnc5c(N)ncnc54)[C@H](OP(=O)(O)O)[C@@H]3O)[C@@H](O)[C@H]2O)C=CC1`
Response: 5.62

---

Target: Bovine liver glutamate dehydrogenase (Bos taurus, UniProt P00366)
Assay: Fluorescence titrations of reduced cofactor binding
Details: NADPH, +20mM glutamate + 100 μM zinc, pH 8.0
parameter measured: Kd (nM)
Numbers only, in nM.

Request: Give the measured Kd of NC(=O)C1=CN([C@@H]2O[C@H](COP(=O)(O)OP(=O)(O)OC[C@H]3O[C@@H](n4cnc5c(N)ncnc54)[C@H](OP(=O)(O)O)[C@@H]3O)[C@@H](O)[C@H]2O)C=CC1 [NADPH] .
Response: 1720

---

Biological target: UniProtKB P00366
Test: Fluorescence titrations of reduced cofactor binding
Details: NADPH, + 100 μM zinc, pH 8.0
parameter measured: pKd
Give bare numbers, as −log10 of the molar value.

Request: GET /values?readout=pKd&system=UniProtKB P00366&item= NC(=O)C1=CN([C@@H]2O[C@H](COP(=O)(O)OP(=O)(O)OC[C@H]3O[C@@H](n4cnc5c(N)ncnc54)[C@H](OP(=O)(O)O)[C@@H]3O)[C@@H](O)[C@H]2O)C=CC1 [NADPH]
Response: 5.98
